In this section we review reported inhibition values for a set of compounds.
Test system: Candida albicans
Assay: Inhibition of Candida albicans AHAS catalytic subunit at 100 uM using pyruvate as substrate measured after 30 mins by colorimetric method relative to control
Quick reminder: number only, in %, skip the unit.

These recorded examples may help you get a feel for the data.
{"mol": "COc1nc(OC)nc(Sc2ccc(C(=O)O)cc2C(=O)O)n1", "unit-of-measure": "%", "observed-value": 58.7}
{"mol": "COc1nc(OC)nc(Sc2ccc(C#N)cc2Cl)n1", "unit-of-measure": "%", "observed-value": 73.6}
{"mol": "COc1nc(OC)nc(Sc2cc(Cl)ccc2C#N)n1", "unit-of-measure": "%", "observed-value": 26.3}
{"mol": "COc1nc(OC)nc(Sc2ccc(C(=O)O)cc2Br)n1", "unit-of-measure": "%", "observed-value": 92.4}
{"mol": "COc1nc(OC)nc(Sc2ccc(F)cc2C#N)n1", "unit-of-measure": "%", "observed-value": 85.1}

Q. What does the data say about its inhibition? Entry: COc1nc(OC)nc(Sc2ccc(C#N)cc2F)n1
A. 85.4

====

Tested on: Sclerotinia sclerotiorum
Experiment: Antifungal activity against Sclerotinia sclerotiorum assessed as reduction in growth at 50 mg/l by mycelium growth rate method relative to control
Format: functional
The recorded inhibition at 50 µg/mL of each item maps onto one of these classes: bucket A = under 30%, bucket B = from 30% up to 60%, bucket C = 60% and over

Please review the following examples before continuing.
{"compound": "COc1nc(OC)nc(Sc2cccc(Cl)c2C#N)n1", "classification": "bucket B"}
{"compound": "COc1nc(OC)nc(Sc2ccc(Cl)cc2C#N)n1", "classification": "bucket A"}
{"compound": "COc1cc(OC)nc(Sc2ccc(C(=O)O)cc2F)n1", "classification": "bucket C"}
{"compound": "COc1cc(OC)nc(Sc2ccc(C(=O)O)cc2Br)n1", "classification": "bucket B"}
{"compound": "COc1nc(OC)nc(Sc2ccc(C#N)cc2Cl)n1", "classification": "bucket B"}

Q. Using the reported inhibition at 50 µg/mL, which band applies to COc1nc(OC)nc(Sc2cccc(Br)c2C#N)n1 ?
A. bucket A

Q. Using the reported inhibition at 50 µg/mL, which band applies to COc1cc(OC)nc(Sc2ccc(Br)cc2C(=O)O)n1 ?
A. bucket C

Q. Using the reported inhibition at 50 µg/mL, which band applies to COc1cc(OC)nc(Sc2cccc(Cl)c2C(=O)O)n1 [PYRITHIOBAC] ?
A. bucket C

====

Test system: Tobacco mosaic virus
Assay: Antiviral activity against Tobacco mosaic virus inoculated in Nicotiana tabacum leaves assessed as passivation by measuring local lesion numbers at 100 mg/l pre-incubated with virus for 30 mins followed by inoculation and measured up to 4 days
Type: functional
The source made the active and inactive calls. No cut-off for these calls is given here.
readout-name: inhibition

These recorded examples may help you get a feel for the data.
{"mol": "COc1cc(OC)nc(Sc2ccc(C(=O)O)cc2Cl)n1", "target-or-system": "Tobacco mosaic virus", "inhibition": "inactive"}
{"mol": "COc1nc(OC)nc(Sc2ccc(C#N)cc2F)n1", "target-or-system": "Tobacco mosaic virus", "inhibition": "inactive"}
{"mol": "COc1cc(OC)nc(Sc2ccc(C(=O)O)c(C(F)(F)F)c2)n1", "target-or-system": "Tobacco mosaic virus", "inhibition": "inactive"}
{"mol": "COc1nc(OC)nc(Sc2cccc(I)c2C#N)n1", "target-or-system": "Tobacco mosaic virus", "inhibition": "inactive"}
{"mol": "COc1nc(OC)nc(Sc2ccc(F)cc2C(=O)O)n1", "target-or-system": "Tobacco mosaic virus", "inhibition": "inactive"}

Q. What does the data say about its inhibition? Entry: COc1nc(OC)nc(Sc2ccc(C#N)cc2Br)n1
A. inactive

Q. What does the data say about its inhibition? Entry: COc1nc(OC)nc(Oc2cccc(I)c2)n1
A. inactive

Q. What does the data say about its inhibition? Entry: COc1nc(OC)nc(Sc2ccc(Br)cc2C(=O)O)n1
A. inactive

Q. What does the data say about its inhibition? Entry: COc1cc(OC)nc(Sc2ccc(Cl)cc2C(=O)O)n1
A. inactive

Q. What does the data say about its inhibition? Entry: COc1nc(OC)nc(Sc2cccc(Br)c2C#N)n1
A. inactive

Q. What does the data say about its inhibition? Entry: COc1nc(OC)nc(Sc2cccc(Cl)c2C#N)n1
A. inactive

====

System: Tobacco mosaic virus
Experiment: Antiviral activity against Tobacco mosaic virus inoculated in Nicotiana tabacum leaves assessed as passivation by measuring local lesion numbers at 500 mg/l pre-incubated with virus for 30 mins followed by inoculation and measured up to 4 days
Format: functional
readout-name: inhibition at 500 µg/mL

Q. What does the data say about its inhibition at 500 µg/mL? Entry: COc1nc(OC)nc(Sc2ccc(C#N)cc2Cl)n1
A. 29.6%

Q. What does the data say about its inhibition at 500 µg/mL? Entry: COc1nc(OC)nc(Sc2cc(Cl)ccc2C#N)n1
A. 0%

Q. What does the data say about its inhibition at 500 µg/mL? Entry: COc1nc(OC)nc(Sc2cccc(Br)c2C#N)n1
A. 0%

Q. What does the data say about its inhibition at 500 µg/mL? Entry: CNCC(=O)N[C@@H](CO)C(=O)N[C@H]1[C@H](O)[C@@H](O)[C@H](n2ccc(N)nc2=O)O[C@@H]1C(N)=O [NINGNANMYCIN]
A. 56.4%

Q. What does the data say about its inhibition at 500 µg/mL? Entry: COc1nc(OC)nc(Sc2ccc(C#N)cc2F)n1
A. 0%

====

Test system: Tobacco mosaic virus
Experiment: Antiviral activity against Tobacco mosaic virus inoculated in Nicotiana tabacum leaves assessed as passivation by measuring local lesion numbers at 500 mg/l pre-incubated with virus for 30 mins followed by inoculation and measured up to 4 days
Assay type: functional
readout-name: inhibition at 500 µg/mL (%)
Quick reminder: number only, in %, skip the unit.

Q. What does the data say about its inhibition at 500 µg/mL? Entry: COc1cc(OC)nc(Sc2ccc(Cl)cc2C(=O)O)n1
A. 0

Q. What does the data say about its inhibition at 500 µg/mL? Entry: COc1nc(OC)nc(Sc2ccc(C(=O)O)c(C(F)(F)F)c2)n1
A. 42.3

====

In this section we review reported IC50 values for a set of compounds.
Experiment: Inhibition of SARS coronavirus M protease using AVLQSGFRKK as substrate by FRET assay
Parameters: species or system Severe acute respiratory syndrome-related coronavirus
Quick reminder: number only, in µM, skip the unit.

These recorded examples may help you get a feel for the data.
{"mol": "COc1nc(OC)nc(Sc2ccc(F)cc2C#N)n1", "readout-name": "IC50", "observed-value": 4.47}
{"mol": "COc1nc(OC)nc(Sc2cccc(I)c2C#N)n1", "readout-name": "IC50", "observed-value": 3.3}

Q. What does the data say about its IC50? Entry: COc1nc(OC)nc(Sc2ccc(Br)cc2C#N)n1
A. 4.54

====

System: Candida albicans
Experiment: Inhibition of Candida albicans AHAS catalytic subunit at 10 uM using pyruvate as substrate measured after 30 mins by colorimetric method relative to control
In this section we review reported inhibition values for a set of molecules.
Quick reminder: number only, in %, skip the unit.

These recorded examples may help you get a feel for the data.
{"mol": "COc1nc(OC)nc(Sc2ccc(Cl)cc2C#N)n1", "unit-of-measure": "%", "inhibition": 52.1}
{"mol": "COc1cc(OC)nc(Sc2ccc(C(=O)O)cc2Cl)n1", "unit-of-measure": "%", "inhibition": 62.3}
{"mol": "COc1nc(OC)nc(Sc2cccc(Br)c2C#N)n1", "unit-of-measure": "%", "inhibition": 34.8}
{"mol": "COc1cc(OC)nc(Sc2cc(C(F)(F)F)ccc2C(=O)O)n1", "unit-of-measure": "%", "inhibition": 0}
{"mol": "COc1nc(OC)nc(Sc2ccc(F)cc2C#N)n1", "unit-of-measure": "%", "inhibition": 36.4}
{"mol": "COc1cc(OC)nc(Sc2ccc(F)cc2C(=O)O)n1", "unit-of-measure": "%", "inhibition": 73.7}
{"mol": "COc1nc(OC)nc(Sc2ccc(C(=O)O)cc2F)n1", "unit-of-measure": "%", "inhibition": 52.3}
{"mol": "COc1nc(OC)nc(Sc2ccc(Cl)cc2C(=O)O)n1", "unit-of-measure": "%", "inhibition": 39.3}

Q. What does the data say about its inhibition? Entry: COc1cc(OC)nc(Sc2cccc(Cl)c2C(=O)O)n1
A. 20

====

Tested on: Severe acute respiratory syndrome-related coronavirus
Assay: Inhibition of SARS coronavirus M protease using AVLQSGFRKK as substrate at 20 uM by FRET assay relative to control
readout-name: inhibition (%)
Quick reminder: number only, in %, skip the unit.

These recorded examples may help you get a feel for the data.
{"mol": "COc1cc(OC)nc(Sc2cccc(Cl)c2C(=O)O)n1", "observed-value": 12.2}
{"mol": "COc1nc(OC)nc(Sc2ccc(Br)cc2C(=O)O)n1", "observed-value": 48.8}
{"mol": "COc1nc(OC)nc(Oc2cccc(I)c2)n1", "observed-value": 0}

Q. What does the data say about its inhibition? Entry: COc1nc(OC)nc(Sc2ccc(Cl)cc2C#N)n1
A. 85.1

Q. What does the data say about its inhibition? Entry: COc1nc(OC)nc(Sc2ccc(C(=O)O)cc2Cl)n1
A. 25.5

Q. What does the data say about its inhibition? Entry: COc1cc(OC)nc(Sc2ccc(C(=O)O)cc2Br)n1
A. 0

Q. What does the data say about its inhibition? Entry: COc1nc(OC)nc(Sc2ccc(C(=O)O)cc2C(=O)O)n1
A. 0

Q. What does the data say about its inhibition? Entry: COc1cc(OC)nc(Sc2ccc(Cl)cc2C(=O)O)n1
A. 4.6

Q. What does the data say about its inhibition? Entry: COc1nc(OC)nc(Sc2ccc(F)cc2C#N)n1
A. 100

Q. What does the data say about its inhibition? Entry: COc1nc(OC)nc(Sc2cccc(F)c2C#N)n1
A. 90.8

Q. What does the data say about its inhibition? Entry: COc1cc(OC)nc(Sc2ccc(C#N)c(C(F)(F)F)c2)n1
A. 85

Q. What does the data say about its inhibition? Entry: COc1cc(OC)nc(Sc2ccc(C(=O)O)cc2F)n1
A. 26.8
